These measurements were taken from patent US20250382344A1.

# TARGET_OR_SYSTEM: T1, human GIP receptor (human, UniProt P48546 22-466)
# T1 sequence (looked up): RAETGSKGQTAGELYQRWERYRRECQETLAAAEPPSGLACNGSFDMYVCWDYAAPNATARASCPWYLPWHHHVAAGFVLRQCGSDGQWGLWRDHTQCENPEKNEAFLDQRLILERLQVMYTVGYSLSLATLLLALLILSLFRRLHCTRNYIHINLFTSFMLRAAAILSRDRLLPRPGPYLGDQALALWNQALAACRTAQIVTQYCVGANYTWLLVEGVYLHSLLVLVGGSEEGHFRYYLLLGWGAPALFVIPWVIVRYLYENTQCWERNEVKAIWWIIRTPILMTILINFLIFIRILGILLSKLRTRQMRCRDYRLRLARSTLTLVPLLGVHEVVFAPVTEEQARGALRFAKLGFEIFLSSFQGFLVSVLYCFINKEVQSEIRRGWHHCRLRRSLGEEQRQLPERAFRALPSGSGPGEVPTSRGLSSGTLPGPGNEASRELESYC
# MEASUREMENT_NOTES: cell-based or functional assay
*1 amine or outer side, *2 acyl side, *3 side chain or, on linkers, in order; H or OH if unused. Where no end group is shown, it is not given here. Side-chain parts run from the residue outwards. [ ]: non-standard residue; d: D form. The star is where a group is joined. C20 diacid = O=C(O)CCCCCCCCCCCCCCCCCCC(=O)*; C18 diacid = O=C(O)CCCCCCCCCCCCCCCCC(=O)*; γGlu = O=C(O)[C@H](CCC(=O)[*:2])N[*:1]; Aib = CC(C)(N)C(=O)O
READOUT_TYPE: EC50, CreLuc reporter, 0.5% hP (nM)
State the answer as a number, implicitly in nM.

Lookup: Kindly indicate its recorded EC50, CreLuc reporter, 0.5% hP. Item: Y[Aib]EGTFTSDYSI[Aib]LEKQAQ[Aib]AFVRHLINK([γGlu-γGlu-γGlu-γGlu-γGlu-γGlu-C18 diacid])LTRQRY-NH2 [Compound 12]
Found: 0.8

Lookup: Quickly give me recorded EC50, CreLuc reporter, 0.5% hP for Y[Aib]EGTFTSDLSI[Aib]LEKQAQ[Aib]AFVRHLINK([γGlu-γGlu-γGlu-γGlu-γGlu-γGlu-C20 diacid])[Aib]TRQRY-NH2 [Compound 51]
Found: 0.5

Lookup: Please list EC50, CreLuc reporter, 0.5% hP recorded for the binder YXEGTFTSDYSIXLDKIAQXAFVRHLINKXTRQRY (Aib at 2, 13, 20, 30; Lys29 epsilon-amino acylated with C18DA-gGlu-gGlu-gGlu-gGlu-gGlu-gGlu-eLys; C-terminal amide) [Compound 33]
Found: 0.7

Lookup: Quote EC50, CreLuc reporter, 0.5% hP reported for YXEGTFTSDYSIXLEKQAQAAFVRHLINKXTRQRY (Aib at 2, 13, 30; Lys29 epsilon-amino acylated with C18DA-gGlu-gGlu-gGlu-gGlu-gGlu-gGlu-eLys; C-terminal amide) [Compound 61] please.
Found: 0.4

Lookup: Assign EC50, CreLuc reporter, 0.5% hP to the following record: YXEGTFTSDYSIXLEKAAQXAFVRHLINKXTRQRY (Aib at 2, 13, 20, 30; Lys29 epsilon-amino acylated with C20DA-gGlu-gGlu-gGlu-gGlu-gGlu-gGlu-eLys; C-terminal amide) [Compound 4]
Found: 0.3
